test-system: mu opiate receptor (MOR) (Rattus norvegicus)
Construct: from tissue; host or cells: striatal tissue (membrane preparation)
Sequence (P33535 whole entry): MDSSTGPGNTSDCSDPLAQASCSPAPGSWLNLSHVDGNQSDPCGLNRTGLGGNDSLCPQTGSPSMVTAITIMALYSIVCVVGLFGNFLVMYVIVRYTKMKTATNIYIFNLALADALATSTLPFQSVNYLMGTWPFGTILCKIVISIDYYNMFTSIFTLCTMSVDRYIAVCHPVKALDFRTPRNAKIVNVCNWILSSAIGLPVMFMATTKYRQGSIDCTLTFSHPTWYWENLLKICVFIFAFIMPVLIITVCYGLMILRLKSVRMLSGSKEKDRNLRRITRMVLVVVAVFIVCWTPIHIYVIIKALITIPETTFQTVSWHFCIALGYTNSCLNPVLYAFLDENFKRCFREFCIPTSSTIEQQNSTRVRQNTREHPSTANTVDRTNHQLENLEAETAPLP
test-protocol: MOR agonist activity using [35S]GTPγS binding assay in striatal membranes
Type: biochemical
condition-label: 1 μM compound; striatal membranes; Series C-2
Exercise: state measured MOR agonist activity, [35S]GTPγS binding, FLNA-binding compound as agonist at 1 μM for each of the molecules provided.
Give bare numbers, in %.

Examples with their reported MOR agonist activity, [35S]GTPγS binding, FLNA-binding compound as agonist at 1 μM follow.
molecule: CN1CCC2(CC1)OCCN2S(=O)(=O)c1ccc(S(C)(=O)=O)cc1 [Compound C0106M]
test-system: mu opiate receptor (MOR) (Rattus norvegicus)
measurement-units: %
result-value: 240.7

molecule: O=S(=O)(c1cccc2cccnc12)N1CCC2(CC1)OCCN2S(=O)(=O)c1cccc2cccnc12 [Compound C0143M]
test-system: mu opiate receptor (MOR) (Rattus norvegicus)
measurement-units: %
result-value: 193.3

molecule: O=C1CN(C2CCc3ccccc3C2)C2(CCN(S(=O)(=O)c3ccccc3)CC2)N1 (centres unmarked) [C0136M (P5)]
test-system: mu opiate receptor (MOR) (Rattus norvegicus)
measurement-units: %
result-value: 237.3

molecule: CC(=O)c1ccc(S(=O)(=O)N2CCC3(CC2)NCCS3)cc1
test-system: mu opiate receptor (MOR) (Rattus norvegicus)
measurement-units: %
result-value: 218.9

Record MOR agonist activity, [35S]GTPγS binding, FLNA-binding compound as agonist at 1 μM for all entries; do not skip any.
1. COc1ccc(S(=O)(=O)N2CCOC23CCN(C(C)C)CC3)cc1 [Compound C0133M]
2. O=[N+]([O-])c1ccc(S(=O)(=O)N2CCC3(CC2)NCCO3)cc1
3. COc1ccc(NC(=O)N2CCC3(CC2)NCCO3)cc1 [Compound C0151M-2]

Response:
214.8
308.3
397.6

Record MOR agonist activity, [35S]GTPγS binding, FLNA-binding compound as agonist at 1 μM for all entries; do not skip any.
1. CC(=O)c1ccc(S(=O)(=O)N2CCC3(CC2)OCCN3S(C)(=O)=O)cc1
2. CC(=O)c1ccc(S(=O)(=O)N2C(Cc3c[nH]cn3)C(=O)NC23CCNCC3)cc1 (centres unmarked) [Compound C0119M]
3. CC(=O)c1ccc(S(=O)(=O)N2CC(=O)NC23CCNCC3)cc1 [Compound C0086M]
4. O=C1CN(Cc2ccccc2)C2(CCN(CC3CC3)CC2)N1 [Compound C0125M]

Response:
193.4
167.8
265.3
195.2

Record MOR agonist activity, [35S]GTPγS binding, FLNA-binding compound as agonist at 1 μM for all entries; do not skip any.
1. C=CCN1CCC2(CC1)OCCN2S(=O)(=O)c1ccc(OC)cc1 [Compound C0091M]
2. COc1ccc(S(=O)(=O)N2CCSC23CCNCC3)cc1
3. O=C1CNC2(CCN(CC3CC3)CC2)N1Cc1ccccc1 [Compound C0124M]
4. CC(=O)c1ccc(S(=O)(=O)N2CCOC23CCN(CC2CC2)CC3)cc1 [Compound C0095M]
5. COc1ccc(S(=O)(=O)N2CCOC23CCNCC3)cc1

Response:
[274.4, 286.8, 305.1, 224.6, 313.9]
